This collection of values is drawn from paper PMC6768028.

test system: α-amylase enzyme (diastase); assay: Antidiabetic activity: α-amylase inhibitory activity using diastase, colorimetric method; format: biochemical; details: 50 μg/ml
measured_property: % inhibition (α-amylase), 50 μg/ml (%)
Kindly answer with a numeric value in %, unit omitted.

A selection of reference data follows.
Kindly note the recorded % inhibition (α-amylase), 50 μg/ml for CN(C)c1ccc(C=C2SC(=O)NC2=O)cc1 , which is 49.45

Kindly note the recorded % inhibition (α-amylase), 50 μg/ml for COc1ccc(C=C2SC(=O)NC2=O)cc1OC , which is 47.77

New cases:
Kindly note the recorded % inhibition (α-amylase), 50 μg/ml for O=C1NC(=O)C(=Cc2ccccc2Cl)S1 , which is 43.89

----------
test system: α-amylase enzyme (diastase); assay: Antidiabetic activity: α-amylase inhibitory activity using diastase, colorimetric method; type: biochemical; conditions: 50 μg/ml
measured_property: % inhibition (α-amylase), 50 μg/ml (%)
Kindly answer with a numeric value in %, unit omitted.

A selection of reference data follows.
Kindly note the recorded % inhibition (α-amylase), 50 μg/ml for O=C1NC(=O)C(=Cc2ccc(Cl)cc2Cl)S1 [Compound 3] , which is 47.98

Kindly note the recorded % inhibition (α-amylase), 50 μg/ml for COc1cccc(C=C2SC(=O)NC2=O)c1 [Compound 16] , which is 43.73

Kindly note the recorded % inhibition (α-amylase), 50 μg/ml for O=C1NC(=O)C(=Cc2ccccc2[N+](=O)[O-])S1 [Compound 4] , which is 40.65

Kindly note the recorded % inhibition (α-amylase), 50 μg/ml for CCN(CC)c1ccc(/C=C2/SC(=O)NC2=O)cc1 [Compound 8] , which is 39.54

Read the next record carefully.
Kindly note the recorded % inhibition (α-amylase), 50 μg/ml for COc1cc(C=C2SC(=O)NC2=O)cc(OC)c1OC [Compound 10] , which is 43.98

----------
test system: α-amylase enzyme (diastase); experiment: Antidiabetic activity: α-amylase inhibitory activity using diastase, colorimetric method; type: biochemical; conditions: 25 μg/ml
% inhibition (α-amylase), 25 μg/ml of 20% or higher: criterion met. Under 20%: criterion not met.

Examples with answers:
Problem: // inclusive: % inhibition (α-amylase), 25 μg/ml at least 20%? input: O=C1NC(=O)C(=Cc2ccc(Cl)cc2Cl)S1 [Compound 3]
Solution: criterion met

Problem: // inclusive: % inhibition (α-amylase), 25 μg/ml at least 20%? input: COc1cc(C=C2SC(=O)NC2=O)ccc1O [Compound 18]
Solution: criterion not met

Problem: // inclusive: % inhibition (α-amylase), 25 μg/ml at least 20%? input: O=C1NC(=O)C(=Cc2ccccc2O)S1 [Compound 17]
Solution: criterion met

Problem: // inclusive: % inhibition (α-amylase), 25 μg/ml at least 20%? input: O=C1NC(=O)C(=Cc2ccccc2Cl)S1 [Compound 13]
Solution: criterion met

Problem: // inclusive: % inhibition (α-amylase), 25 μg/ml at least 20%? input: COc1ccc(C=C2SC(=O)NC2=O)cc1 [Compound 12]
Solution: criterion met

Now, please, on to the next compound.
Problem: // inclusive: % inhibition (α-amylase), 25 μg/ml at least 20%? input: CCOc1cc(C=C2SC(=O)NC2=O)ccc1O [Compound 11]
Solution: criterion not met

----------
# % inhibition (α-amylase), 50 μg/ml per record follows
tested on: α-amylase enzyme (diastase); assay: Antidiabetic activity: α-amylase inhibitory activity using diastase, colorimetric method; format: biochemical; settings: 50 μg/ml
Kindly answer with a numeric value in %, unit omitted.

A selection of reference data follows.
Kindly note the recorded % inhibition (α-amylase), 50 μg/ml for C[C@H]1O[C@H](O[C@H]2[C@H](O)[C@@H](O)[C@@H](O[C@H]3[C@H](O)[C@@H](O)C(O)O[C@@H]3CO)O[C@@H]2CO)[C@H](O)[C@@H](O)[C@@H]1N[C@H]1C=C(CO)[C@@H](O)[C@H](O)[C@H]1O (stereo partly drawn) [Acarabose, Acarbose, reference compound] , which is 53.45

Kindly note the recorded % inhibition (α-amylase), 50 μg/ml for CCOc1cc(C=C2SC(=O)NC2=O)ccc1O , which is 47.87

Kindly note the recorded % inhibition (α-amylase), 50 μg/ml for COc1ccccc1C=C1SC(=O)NC1=O , which is 51.78

Kindly note the recorded % inhibition (α-amylase), 50 μg/ml for COc1ccc(C=C2SC(=O)NC2=O)cc1 , which is 53.23

Kindly note the recorded % inhibition (α-amylase), 50 μg/ml for O=C1NC(=O)C(=C/C=C/c2ccccc2)S1 , which is 45.98

Kindly note the recorded % inhibition (α-amylase), 50 μg/ml for O=C1NC(=O)C(=Cc2ccc([N+](=O)[O-])cc2)S1 , which is 35.79

New cases:
Kindly note the recorded % inhibition (α-amylase), 50 μg/ml for O=C1NC(=O)C(=Cc2ccccc2O)S1 , which is 48.56

Kindly note the recorded % inhibition (α-amylase), 50 μg/ml for O=C1NC(=O)C(=Cc2ccc(Br)cc2)S1 , which is 53.78

Kindly note the recorded % inhibition (α-amylase), 50 μg/ml for COc1cc(C=C2SC(=O)NC2=O)ccc1O , which is 45.85
